Would you mind telling me the reported CC50 at 48 h of each entry?
experiment_description: Cytotoxicity against human Calu-3 cells assessed as reduction in cell viability incubated for 48 hrs by MTT assay
Type: toxicity, cell-based

given_smiles: CCC(CC)COC(=O)[C@H](C)N[P@](=O)(OC[C@H]1O[C@@](C#N)(c2ccc3c(N)ncnn23)[C@H](O)[C@@H]1O)Oc1ccccc1
CC50 at 48 h: > 100 µM

Moving on to another compound below.
Entry "O=c1ccn([C@@H]2S[C@H](CO)[C@@H](O)[C@H]2O)c(=O)[nH]1" — recorded CC50 at 48 h = > 100 µM

* * *

experiment_description: Oral bioavailability in male ICR mouse at 10 mg/kg measured after 24 hrs by LC-MS/MS analysis
Assay type: ADME, organism-based
particulars: in vivo
experimental_endpoint: bioavailability (%)
One number for each entry, in %.

Entry "O=c1ccn([C@@H]2S[C@H](CO)[C@@H](O)[C@H]2O)c(=O)[nH]1" — recorded bioavailability = 109

* * *

experiment_description: Cytotoxicity against human Huh-7 cells assessed as reduction in cell viability by MTT-based cell viability assay
Assay type: toxicity
experimental_endpoint: CC50 (µM)
Give bare numbers, in µM.

Entry "CCC(CC)COC(=O)[C@H](C)N[P@](=O)(OC[C@H]1O[C@@](C#N)(c2ccc3c(N)ncnn23)[C@H](O)[C@@H]1O)Oc1ccccc1" — recorded CC50 = 19.6

* * *

experiment_description: MRTinfinity in male ICR mouse at 10 mg/kg, po measured after 24 hrs by LC-MS/MS analysis
Type: ADME, organism-based
particulars: in vivo
experimental_endpoint: MRT inf (h)
Give bare numbers, in h.

Entry "O=c1ccn([C@@H]2S[C@H](CO)[C@@H](O)[C@H]2O)c(=O)[nH]1" — recorded MRT inf = 10.5

* * *

experiment_description: Terminal half-life in male ICR mouse at 10 mg/kg, po measured after 24 hrs by LC-MS/MS analysis
Type: ADME, organism-based
particulars: in vivo, read-out: beta t1/2 (converted)
experimental_endpoint: half-life (h)
Answers are plain numbers, in h.

Entry "O=c1ccn([C@@H]2S[C@H](CO)[C@@H](O)[C@H]2O)c(=O)[nH]1" — recorded half-life = 8.2

* * *

experiment_description: MRTlast in male ICR mouse at 5 mg/kg, iv measured after 24 hrs by LC-MS/MS analysis
Format: ADME, organism-based
particulars: in vivo
experimental_endpoint: MRT last at 24 h

Entry "O=c1ccn([C@@H]2S[C@H](CO)[C@@H](O)[C@H]2O)c(=O)[nH]1" — recorded MRT last at 24 h = 7.16 h

* * *

experiment_description: Cytotoxicity against human H1-HeLa cells assessed as reduction in cell viability incubated for 72 hrs
Type: toxicity, cell-based
experimental_endpoint: CC50 at 72 h

given_smiles: CCOC(=O)/C=C/[C@H](C[C@@H]1CCNC1=O)NC(=O)[C@@H](CC(=O)[C@@H](NC(=O)c1cc(C)on1)C(C)C)Cc1ccc(F)cc1
result: > 100 µM

Entry "O=c1ccn([C@@H]2S[C@H](CO)[C@@H](O)[C@H]2O)c(=O)[nH]1" — recorded CC50 at 72 h = > 100 µM

* * *

experiment_description: Selectivity index, ratio of CC50 for cytotoxicity against HEK293T cells to EC50 for antiviral activity against Zaire Ebola virus infected in HEK293T cells transfected with viral replication protein and Renilla luciferase
Type: toxicity, cell-based
particulars: human, read-out: Ratio CC50/EC50
experimental_endpoint: selectivity ratio

Entry "CCC(CC)COC(=O)[C@H](C)N[P@](=O)(OC[C@H]1O[C@@](C#N)(c2ccc3c(N)ncnn23)[C@H](O)[C@@H]1O)Oc1ccccc1" — recorded selectivity ratio = 14.2

* * *

experiment_description: Cytotoxicity against rhesus monkey LLC-MK2 cells assessed as reduction in cell viability by MTT-based cell viability assay
Type: toxicity, Macaca mulatta
experimental_endpoint: CC50

given_smiles: O=c1ccn([C@@H]2S[C@H](CO)[C@@H](O)[C@H]2O)c(=O)[nH]1
CC50: > 100 µM

Entry "CCC(CC)COC(=O)[C@H](C)N[P@](=O)(OC[C@H]1O[C@@](C#N)(c2ccc3c(N)ncnn23)[C@H](O)[C@@H]1O)Oc1ccccc1" — recorded CC50 = > 100 µM

* * *

Tested on: SARS-CoV-2
experiment_description: Antiviral activity against SARS-CoV-2 Delta (hCoV-19/Korea/KDCA119861/2021) infected in human Calu-3 cells assessed as reduction in number of spike-protein expressing cells pre-infected for 30 mins followed by compound addition and measured 48 hrs post-infection by DAPI staining based immunofluorescence analysis relative to control
Type: functional, organism-based
particulars: Severe acute respiratory syndrome coronavirus 2, Delta (hCoV-19/Korea/KDCA119861/2021)
experimental_endpoint: EC50

given_smiles: CCC(CC)COC(=O)[C@H](C)N[P@](=O)(OC[C@H]1O[C@@](C#N)(c2ccc3c(N)ncnn23)[C@H](O)[C@@H]1O)Oc1ccccc1
assay_target: SARS-CoV-2
EC50: 2.4 µM

Moving on to another compound below.
Entry "O=c1ccn([C@@H]2S[C@H](CO)[C@@H](O)[C@H]2O)c(=O)[nH]1" — recorded EC50 = 7.6 µM

* * *

experiment_description: Selectivity index, ratio of CC50 for cytotoxicity against human Calu-3 cells to EC50 for antiviral activity against SARS-CoV-2 Omicron (hCoV-19/Korea/KDCA447321/2021) infected in human Calu-3 cells assessed as reduction in number of spike-protein expressing cells
Assay type: toxicity, cell-based
particulars: read-out: Ratio CC50/EC50
experimental_endpoint: selectivity ratio

Entry "CCC(CC)COC(=O)[C@H](C)N[P@](=O)(OC[C@H]1O[C@@](C#N)(c2ccc3c(N)ncnn23)[C@H](O)[C@@H]1O)Oc1ccccc1" — recorded selectivity ratio = > 24.7

* * *

experiment_description: Selectivity index, ratio of CC50 for cytotoxicity against MDCK cells to EC50 for antiviral activity against Influenza B virus B/Lee/40 infected in MDCK cells assessed as reduction in virus-induced cytopathic effect
Format: toxicity, cell-based
particulars: dog, read-out: Ratio CC50/EC50
experimental_endpoint: selectivity ratio

Entry "NC(=O)c1ncn([C@@H]2O[C@H](CO)[C@@H](O)[C@H]2O)n1" — recorded selectivity ratio = > 6.39

* * *

experiment_description: Selectivity index, ratio of CC50 for cytotoxicity against human H1-HeLa cells to EC50 for antiviral activity against Human rhinovirus B14 infected in human H1-HeLa cells
Type: toxicity, cell-based
particulars: read-out: Ratio CC50/EC50
experimental_endpoint: selectivity ratio

Entry "CCOC(=O)/C=C/[C@H](C[C@@H]1CCNC1=O)NC(=O)[C@@H](CC(=O)[C@@H](NC(=O)c1cc(C)on1)C(C)C)Cc1ccc(F)cc1" — recorded selectivity ratio = > 176

* * *

experiment_description: AUClast in male ICR mouse at 10 mg/kg, po measured after 24 hrs by LC-MS/MS analysis
Assay type: ADME, organism-based
particulars: in vivo
experimental_endpoint: AUC(0-t) at 24 h
Please answer using a numeric value trailed by its unit.

Entry "O=c1ccn([C@@H]2S[C@H](CO)[C@@H](O)[C@H]2O)c(=O)[nH]1" — recorded AUC(0-t) at 24 h = 38000 ng·h/mL

* * *

Would you mind telling me the reported CC50 at 72 h of each entry?
experiment_description: Cytotoxicity against MDCK cells assessed as reduction in cell viability incubated for 3 days by MTT assay
Assay type: toxicity, cell-based, Canis lupus familiaris
particulars: dog, time 3 day

given_smiles: O=c1ccn([C@@H]2S[C@H](CO)[C@@H](O)[C@H]2O)c(=O)[nH]1
result: > 100 µM

Entry "NC(=O)c1ncn([C@@H]2O[C@H](CO)[C@@H](O)[C@H]2O)n1" — recorded CC50 at 72 h = > 100 µM

* * *

experiment_description: Selectivity index, ratio of CC50 for cytotoxicity against human Calu-3 cells to EC50 for antiviral activity against SARS-CoV-2 Gamma (hCoV-19/Korea95637/KDCA/2021) infected in human Calu-3 cells assessed as reduction in number of spike-protein expressing cells
Type: toxicity, cell-based
particulars: read-out: Ratio CC50/EC50
experimental_endpoint: selectivity ratio

Entry "CCC(CC)COC(=O)[C@H](C)N[P@](=O)(OC[C@H]1O[C@@](C#N)(c2ccc3c(N)ncnn23)[C@H](O)[C@@H]1O)Oc1ccccc1" — recorded selectivity ratio = > 73.1

* * *

experiment_description: Selectivity index, ratio of CC50 for cytotoxicity against human Calu-3 cells to EC50 for antiviral activity against SARS-CoV-2 Delta (hCoV-19/Korea/KDCA119861/2021) infected in human Calu-3 cells assessed as reduction in number of spike-protein expressing cells
Format: toxicity, cell-based
particulars: read-out: Ratio CC50/EC50
experimental_endpoint: selectivity ratio

Entry "CCC(CC)COC(=O)[C@H](C)N[P@](=O)(OC[C@H]1O[C@@](C#N)(c2ccc3c(N)ncnn23)[C@H](O)[C@@H]1O)Oc1ccccc1" — recorded selectivity ratio = > 41.6

* * *

experiment_description: Selectivity index, ratio of CC50 for cytotoxicity against human Huh-7 cells to EC50 for antiviral activity against MERS-CoV KOR/KNIH/002_05_2015 infected in human Huh-7 cells assessed as inhibition of virus-induced cytopathic effect
Assay type: toxicity, cell-based
particulars: read-out: Ratio CC50/EC50
experimental_endpoint: selectivity ratio

Entry "CCC(CC)COC(=O)[C@H](C)N[P@](=O)(OC[C@H]1O[C@@](C#N)(c2ccc3c(N)ncnn23)[C@H](O)[C@@H]1O)Oc1ccccc1" — recorded selectivity ratio = > 348
